Test: qHTS assay for small molecules that induce genotoxicity in human embryonic kidney cells expressing luciferase-tagged ATAD5 - cell viability (AID 651634); also: nearly all actives have a fitted effect of over 25% in size
Settings: HEK293T ATAD5-luc cells viability, CellTiter-Fluor, 15.5 h; series mostly up to 83.3 µM
Results filed as inconclusive are left out. Activity calls are given as the source filed them. Calls follow the shape of the full dose curve. Positions of bridges follow the written chain, without caps; N, C: chain ends. Residues, ends and D or L forms follow the SMILES beside them.
Give your call using only these classes: active, inactive

[[record]]
compound = "CC[C@]1(O)CC2CN(CCc3c([nH]c4ccccc34)[C@@](C(=O)OC)(c3cc4c(cc3OC)N(C)[C@H]3[C@@](O)(C(N)=O)[C@H](O)[C@]5(CC)C=CCN6CC[C@]43[C@@H]65)C2)C1 (stereo not given in full)"
class = "active"

[[record]]
compound = "NCCCC[C@H](NC(=O)[C@@H]1CCCN1C(=O)[C@@H]1CSSC[C@H](NC(=O)CNC(=O)CNC(=O)CN)C(=O)N[C@@H](Cc2ccc(O)cc2)C(=O)N[C@@H](Cc2ccccc2)C(=O)N[C@@H](CCC(N)=O)C(=O)N[C@@H](CC(N)=O)C(=O)N1)C(=O)NCC(N)=O (H-GGGCYFQNCPKG-NH2; disulfide 4-9)"
class = "inactive"

[[record]]
compound = "CCC(C)(C)OC(=O)N[C@@H](Cc1c[nH]c2ccccc12)C(=O)N[C@@H](CCSC)C(=O)N[C@@H](CC(=O)O)C(=O)N[C@@H](Cc1ccccc1)C(N)=O"
class = "inactive"

[[record]]
compound = "CCCCCCCCCCCCCCCCCCCCCC(=O)Nc1ccn([C@@H]2O[C@H](CO)[C@@H](O)[C@@H]2O)c(=O)n1"
class = "inactive"


Now consider a different compound.
Enquiry: Dear colleague, could you share the recorded outcome for C=C1CC[C@@H]2[C@](C)(CO)[C@H](O)CC[C@@]2(C)[C@@H]1C/C=C1/C(=O)OC[C@H]1O when you have a moment?
Return: inactive

----------
Assay: qHTS assay to identify aromatase inhibitors - cell viability counter screen (AID 743084);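 also: cells stimulated with testosterone during compound exposure; nearly all actives have a fitted effect of over 55% in size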
Conditions: MCF-7 aro ERE viability, CellTiter-Fluor, 24 h; series mostly up to 70.3 µM
Inconclusive results are not listed. Activity calls are given as the source filed them. The call rests on the fitted dose curve; in most records, active means well fitted cell-killing curve with a large enough effect in the repeat runs; inconclusive means weak or mixed curves, or effect the other way; inactive means no such curve, though single readings can be large or run the other way.
Give your call using only these classes: y (active), n (inactive)

A selection of reference data follows.
[[record]]
molecule = "CCC(Cc1c(I)cc(I)c(O)c1I)C(=O)O (configuration not stated)"
class = "n"

[[record]]
molecule = "CCCCCCCCCCCCCCCCCCCCCCO"
class = "n"


Enquiry: Dear colleague, could you share the recorded outcome for COC(=O)[C@H]1[C@H]2C[C@@H]3c4[nH]c5cc(OC)ccc5c4CCN3C[C@H]2C[C@@H](OC(=O)/C=C/c2cc(OC)c(OC)c(OC)c2)[C@@H]1OC when you have a moment?
Return: n

Enquiry: Dear colleague, could you share the recorded outcome for Cn1cc(NC(=O)c2cc(NC(=O)c3cc(NC=O)cn3C)cn2C)cc1C(=O)NCCC(=N)N when you have a moment?
Return: n

Enquiry: Dear colleague, could you share the recorded outcome for CC1CS(=O)(=O)CCN1/N=C/c1ccc([N+](=O)[O-])o1 (configuration not stated) when you have a moment?
Return: n

Enquiry: Dear colleague, could you share the recorded outcome for COC(F)(F)C(Cl)Cl when you have a moment?
Return: n

Enquiry: Dear colleague, could you share the recorded outcome for OCCN1CCN(CC/C=C2/c3ccccc3Sc3ccc(Cl)cc32)CC1 when you have a moment?
Return: n

Enquiry: Dear colleague, could you share the recorded outcome for O=P(O)(O)OC(Cn1cncn1)(Cn1cncn1)c1ccc(F)cc1F when you have a moment?
Return: n

Enquiry: Dear colleague, could you share the recorded outcome for CCC(=O)c1ccc2c(c1)N(CCCN1CCN(CCO)CC1)c1ccccc1S2 when you have a moment?
Return: n

Enquiry: Dear colleague, could you share the recorded outcome for O=C(O)COc1ccc(CCNS(=O)(=O)c2ccccc2)s1 when you have a moment?
Return: n

Enquiry: Dear colleague, could you share the recorded outcome for CCCCCCCCCCCCCCCCCC(=O)OCC(C)O (configuration not stated) when you have a moment?
Return: y

Enquiry: Dear colleague, could you share the recorded outcome for Nc1nc2[nH]cc(CCc3ccc(C(=O)N[C@@H](CCC(=O)O)C(=O)O)cc3)c2c(=O)[nH]1 when you have a moment?
Return: n
